- assay-notes: protein stability index of a GFP-peptide fusion (yeast GPS) (PSI 1-4); higher = more stable; sorted into four equal gates, so the index is relative within each strain
- applied-conditions: doa10∆
# label = label 1 if protein stability index >= 3 else label 0

Task: Hello, I need to know if GHEELKRRIEEEQEKIN [ISW2] has measured protein stability index not below 3. Thanks!
Result: label 1

Task: Hello, I need to know if KKKVYTTPKKIKHKHKK [RPS31] has measured protein stability index not below 3. Thanks!
Result: label 1

Task: Hello, I need to know if PTDDKTLKPTFSFTEPA [YOR098C/NUP1] has measured protein stability index not below 3. Thanks!
Result: label 1

Task: Hello, I need to know if VDFQNDLKDILEKVVPL [BRR2] has measured protein stability index not below 3. Thanks!
Result: label 1

Task: Hello, I need to know if QRILEVLGTPDQKIWPY [SSN3] has measured protein stability index not below 3. Thanks!
Result: label 0

Task: Hello, I need to know if FYDYIKERSIVVGRTTR [REC8] has measured protein stability index not below 3. Thanks!
Result: label 0

Task: Hello, I need to know if SLPRFSKPVLIVGQKNL [DIS3] has measured protein stability index not below 3. Thanks!
Result: label 0

Task: Hello, I need to know if KDEETTEKARLIDFEYV [RRI2] has measured protein stability index not below 3. Thanks!
Result: label 1

Task: Hello, I need to know if VVPDLGHLNGHTPTIAS [SSN2] has measured protein stability index not below 3. Thanks!
Result: label 0

Task: Hello, I need to know if NEKFEIELLSLDDDSIV [SRB4] has measured protein stability index not below 3. Thanks!
Result: label 0

Task: Hello, I need to know if VEKNEIGKMYDEYLGSH [NNF1] has measured protein stability index not below 3. Thanks!
Result: label 1

Task: Hello, I need to know if RALRIETGNFSWASEGI [RPS8A] has measured protein stability index not below 3. Thanks!
Result: label 1
